Molecular target: OCT2 (Homo sapiens, UniProt O15244)
Construct: expressed in transfected cells; host or cells: MDCK-II
Sequence (O15244 1-555): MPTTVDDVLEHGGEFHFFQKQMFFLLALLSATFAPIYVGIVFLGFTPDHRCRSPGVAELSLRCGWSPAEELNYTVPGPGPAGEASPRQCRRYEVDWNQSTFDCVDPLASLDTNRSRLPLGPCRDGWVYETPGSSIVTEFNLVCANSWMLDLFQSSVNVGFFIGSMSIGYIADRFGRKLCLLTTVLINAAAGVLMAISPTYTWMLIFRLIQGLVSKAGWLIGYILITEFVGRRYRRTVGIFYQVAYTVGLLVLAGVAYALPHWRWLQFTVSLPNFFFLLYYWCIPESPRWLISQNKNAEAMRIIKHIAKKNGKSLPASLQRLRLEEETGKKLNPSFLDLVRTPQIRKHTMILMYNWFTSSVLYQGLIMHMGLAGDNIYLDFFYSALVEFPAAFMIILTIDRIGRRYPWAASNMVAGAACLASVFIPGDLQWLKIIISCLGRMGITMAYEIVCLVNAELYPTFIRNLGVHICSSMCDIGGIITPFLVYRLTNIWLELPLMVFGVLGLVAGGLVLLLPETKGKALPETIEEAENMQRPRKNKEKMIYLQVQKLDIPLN
Test: Inhibition of OCT2 mediated transport of creatinine in transfected MDCK-II cells (Example 3)
Assay type: in vitro ADME
Settings: probe substrate creatinine, 0.03 to 10 μM
Reported pIC50 is given for each of the following compounds.
Convention used: pIC50 is expressed as -log10 of the molar concentration.

Cc1cc(Nc2ncnc3ccc(NC4=NC(C)(C)CO4)cc23)ccc1Oc1ccn2ncnc2c1	6.97

Now consider a different compound.
Can you look up the measured pIC50 of Cc1cc(Nc2ncnc3ccc(NC4=NC(C)(CO)CO4)cc23)ccc1Oc1ccn2ncnc2c1 (centres unmarked) for me?
6.26

----------
system: CYP3A4/5; assay: Cytochrome P450 3A4/5 inhibition in human liver microsomes (Example 4); type: in vitro ADME; details: both sexes, human, pooled human liver microsomes, pH 7.4, probe testosterone (6β-hydroxylation); read-out: IC50, direct inhibition of CYP3A4/5-mediated testosterone 6p-hydroxylation
Reported Metric: IC50 at 5 min

Which IC50 at 5 min is reported with CYP3A4/5 for this entry: Cc1cc(Nc2ncnc3ccc(NC4=NC(C)(C)CO4)cc23)ccc1Oc1ccn2ncnc2c1 ?
> 10 µM

----------
test system: MATE1/2K; experiment: clinical; conditions: both, human, plasma, po, 850 mg
Reported Metric: AUC(0-t) (µg·h/mL)
Could you give me the number in µg·h/mL? Just the number is fine.

Reported AUC(0-t) for CN(C)C(=N)N=C(N)N : what is it?
8.42

----------
Molecular target: MATE1 (Homo sapiens)
Sequence (Q96FL8 1-570): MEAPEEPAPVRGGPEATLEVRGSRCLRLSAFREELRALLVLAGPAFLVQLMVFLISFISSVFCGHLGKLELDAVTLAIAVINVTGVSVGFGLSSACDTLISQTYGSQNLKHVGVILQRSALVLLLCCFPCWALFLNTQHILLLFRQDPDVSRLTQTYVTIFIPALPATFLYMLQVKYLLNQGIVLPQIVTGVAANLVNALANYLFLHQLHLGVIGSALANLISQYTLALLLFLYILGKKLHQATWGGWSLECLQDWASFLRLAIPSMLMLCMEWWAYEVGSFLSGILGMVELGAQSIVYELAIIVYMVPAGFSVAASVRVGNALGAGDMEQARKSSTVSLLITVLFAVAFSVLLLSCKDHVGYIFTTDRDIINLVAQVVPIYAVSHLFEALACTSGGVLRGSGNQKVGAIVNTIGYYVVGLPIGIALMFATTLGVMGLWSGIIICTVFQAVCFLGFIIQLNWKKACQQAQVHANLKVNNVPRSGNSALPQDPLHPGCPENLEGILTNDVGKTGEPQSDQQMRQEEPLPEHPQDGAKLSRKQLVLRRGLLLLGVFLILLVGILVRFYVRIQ
Assay: In vitro inhibition of MATE1 transporter
Type: in vitro ADME
Reported Metric: IC50 (µM)
Quick reminder: number only, in µM, skip the unit.

Which measured IC50 value corresponds to Cc1cc(Nc2ncnc3ccc(NC4=NC(C)(C)CO4)cc23)ccc1Oc1ccn2ncnc2c1 ?
0.34
